- Test system: UACC-257 melanoma
- Test summary: NCI-60 one-dose screen, 48 h (100 = growth as untreated, 0 = no growth, -100 = all killed)
- Condition parameters: 10 µM unless noted
This is part of a sample that, as a whole, favours compounds with a hit. Of some 83,000 tested, about 20% had one in any assay. Calls of active or inactive are those of the source. The calls were made as follows: active = growth percent below 10; inactive = the rest.
Give growth for every item shown.

UACC-257 melanoma / growth / CCCCCOC(=O)c1cccc(NC(=O)CN(CC)CC)c1 : value? 105% (inactive)

UACC-257 melanoma / growth / CSc1ccc(Cl)c(C(=O)Nc2sccc2C(N)=O)c1 : value? 104% (inactive)

UACC-257 melanoma / growth / CS(=O)(=O)c1ccc(-c2[nH]c3ccc(F)cc3c2/C=N/NC(N)=S)cc1 : value? 63.3% (inactive)

UACC-257 melanoma / growth / COc1cc2nc(Nc3ccc(F)cc3)nc(N)c2cc1OC : value? 102% (inactive)

UACC-257 melanoma / growth / CCCNCC(=O)Nc1ccc(C(=O)OC(C)(C)CC)cc1 : value? 105% (inactive)

UACC-257 melanoma / growth / CS(=O)(=O)c1ccc(-c2[nH]c3ccc(F)cc3c2/C=N/O)cc1 : value? 86.7% (inactive)

UACC-257 melanoma / growth / Cl.Fc1c[c-]c(-c2ccccn2)c(F)c1.[Pt].c1ccc([PH+](c2ccccc2)c2ccccc2[PH+](c2ccccc2)c2ccccc2)cc1 : value? -71.8% (active)

UACC-257 melanoma / growth / CCN(CC)CCCC(C)NCc1ccccc1 (stereo not drawn) : value? 102% (inactive)

Attribution: PubChem BioAssay (NCI)
